- tgt: Serine/threonine-protein kinase Chk1 (Homo sapiens, UniProt O14757)
- Sequence (O14757 whole entry): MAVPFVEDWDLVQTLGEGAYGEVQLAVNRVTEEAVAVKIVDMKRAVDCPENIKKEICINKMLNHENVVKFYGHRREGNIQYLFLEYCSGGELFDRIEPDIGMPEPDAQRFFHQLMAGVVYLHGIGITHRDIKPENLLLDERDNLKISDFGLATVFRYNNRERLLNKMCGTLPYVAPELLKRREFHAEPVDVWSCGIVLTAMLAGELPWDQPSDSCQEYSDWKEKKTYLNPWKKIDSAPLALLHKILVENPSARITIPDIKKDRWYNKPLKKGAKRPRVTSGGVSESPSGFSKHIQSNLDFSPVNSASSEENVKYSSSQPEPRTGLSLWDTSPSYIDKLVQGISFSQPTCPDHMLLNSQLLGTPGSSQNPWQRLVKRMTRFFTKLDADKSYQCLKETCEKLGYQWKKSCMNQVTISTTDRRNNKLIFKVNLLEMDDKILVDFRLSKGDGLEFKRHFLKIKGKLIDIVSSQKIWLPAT
endpoint: pIC50
Kindly note that pIC50 refers to -log10 of the concentration in mol/L and answer with the value alone.

N#Cc1ncc2nc1OCC/C=C\COc1ccc(CCOC3CCCCO3)cc1NC(=O)N2 (stereo not given)    6.97
N#Cc1ncc2nc1OCC/C=C\COc1ccc(Cl)cc1NC(=O)N2    8.00
CC(=O)Nc1ccc2c(c1)NC(=O)Nc1cnc(C#N)c(n1)OCC/C=C\CO2    7.80

From here, focus on the item given below.
May I ask what pIC50 has been recorded for N#Cc1ncc2nc1OCC/C=C\COc1ccc(OCCOC3CCCCO3)cc1NC(=O)N2 (stereo not given) ?
7.72
